assay: Human microsomal stability analysis; assay type: in vitro ADME; settings: human liver microsomes, pH 7.4, NADPH-Dependent CLint, with NADPH
recorded_endpoint: microsomal CLint (µL/min/mg)
Field format: number, assumed µL/min/mg, no unit text.

The recorded microsomal CLint for entry Cc1nc(-c2ccc3ccccc3c2)sc1-c1cnc(NC(=N)N)s1 equals 17.3

====

experiment: Human microsomal stability analysis; format: in vitro ADME; conditions: human liver microsomes, pH 7.4, NADPH-Free CLint, without NADPH
Here, each record is paired with measured microsomal CLint data.

INSERT INTO measurements (compound, meas_value) VALUES
  ('CCCCc1ccc(-c2nc(C)c(/C(C)=N/NC(=N)N)s2)cc1 [Compound 1a, reference compound]', '< 9.6 µL/min/mg');

Consider the additional compound presented here.
According to the records, this compound Cc1nc(-c2ccc3ccccc3c2)sc1-c1cnc(NC(=N)N)s1 [Compound 4i] displays microsomal CLint of < 9.6 µL/min/mg
